Entries and their Top
test_system: T1, human G-protein-coupled receptor family C group 5 member D (GPRC5D) (human, UniProt Q9NZD1 1-345)
T1 construct: whole, on cells; also called human GPRC5D protein
T1 sequence (Q9NZD1 whole entry): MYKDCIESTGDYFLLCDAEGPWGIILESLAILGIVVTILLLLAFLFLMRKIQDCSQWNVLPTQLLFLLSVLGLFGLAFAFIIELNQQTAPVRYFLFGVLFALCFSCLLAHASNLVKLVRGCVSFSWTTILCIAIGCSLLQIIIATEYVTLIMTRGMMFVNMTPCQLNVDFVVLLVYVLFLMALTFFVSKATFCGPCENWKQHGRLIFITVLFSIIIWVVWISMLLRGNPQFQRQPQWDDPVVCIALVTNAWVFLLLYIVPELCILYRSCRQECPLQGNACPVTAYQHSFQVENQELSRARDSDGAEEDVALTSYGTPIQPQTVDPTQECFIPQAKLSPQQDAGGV
test_method_notes: FACS, CHO-K1/human GPRC5D, hybridoma supernatant
Give the figure only, with no unit attached.

Recorded Top, per entry:
Looking for the measured Top of 21C3C11B3 (antibody, V domains shown, murine antibody from hybridoma supernatant) VH: QVQLQQSGAELVRPGTSVKVSCKASGYAFINYLIEWIKQRPGQGLEWIGMINPGSGGTNYNEKFKDKATLTADKSSSTAYMQLSSLTSDDSAVYFCARNWDVWGQGTTLTVSS VL: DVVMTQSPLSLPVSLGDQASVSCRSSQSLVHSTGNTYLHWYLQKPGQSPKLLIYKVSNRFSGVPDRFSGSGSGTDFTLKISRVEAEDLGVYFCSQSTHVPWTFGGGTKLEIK , can you help? 1.51e+06

And for 38A10E9A11 (antibody, V domains shown, murine antibody from hybridoma supernatant) VH: QVQLQQSGAELARPGASVKMSCKASGYTFTTYTMHWVKQRPGQGLEWIGYINPSSGYTNYNQKFKDKATLTAGKSSSTAYMQLSSLTSEDSAVYYCASLRSRGYFDYWGRGTTLTVSS VL: DIVMTQSQKFLSTSVGDRVSITCKASQNVGTAVAWYQQKPGQSPKLLIYSASNRYTGVPDRFTGSGSGTDFTLTISNMQSEDLAGYFCQQYSSYPYTFGGGTKLEIK ? 1.79e+06

For 58F9G10 (antibody, V domains shown, murine antibody from hybridoma supernatant) VH: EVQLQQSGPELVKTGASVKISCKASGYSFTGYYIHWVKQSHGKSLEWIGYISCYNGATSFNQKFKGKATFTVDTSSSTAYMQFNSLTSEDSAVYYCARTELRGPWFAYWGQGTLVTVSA VL: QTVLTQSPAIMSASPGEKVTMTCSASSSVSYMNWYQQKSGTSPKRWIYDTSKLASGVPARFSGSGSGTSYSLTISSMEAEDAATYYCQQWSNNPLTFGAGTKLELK then? 2.05e+06

// query: 34D4A10 (antibody, V domains shown, murine antibody from hybridoma supernatant) VH: QVQLQQSGAELVRPGTSVKVSCKASGYAFISYLIEWIKQRPGQGLEWIGMINPGSGGTNYNEKFKDKATLTADKSSSTAYMQLSSLTSDDSAVYFCARNWDVWGQGTTLTVSS VL: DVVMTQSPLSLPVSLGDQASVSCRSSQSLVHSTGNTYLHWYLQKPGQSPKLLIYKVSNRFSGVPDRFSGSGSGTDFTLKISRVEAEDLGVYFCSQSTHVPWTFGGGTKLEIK 922000

Same question for 29B2C10 (antibody, V domains shown, murine antibody from hybridoma supernatant) VH: EVQLQQSGPELVKPGASMKLSCKASGYSFTGYTMHWVKQSHGENLEWIGLINPYNGGTNYNQKFKGKATLTVDKSSSTAYMELLSLTSEDSAVYYCSRWGLRRAMDYWGQGTSVTVSS VL: DIVMTQSQKFMSTSVGDRVSVTCKASQNVGSNVAWYQQKPGQSPKALIYSASYRYSGVPDRFTGNGSGTDFTLTISNVQSEDLAEYFCQQYYNSPWTFGGGTKLEIK please. 1.61e+06

***
What measured Top goes with 37B9C4 (antibody, V domains shown, murine antibody from hybridoma supernatant) VH: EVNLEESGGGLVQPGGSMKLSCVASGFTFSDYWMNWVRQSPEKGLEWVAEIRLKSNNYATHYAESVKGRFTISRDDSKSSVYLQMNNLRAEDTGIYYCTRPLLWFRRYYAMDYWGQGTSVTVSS VL: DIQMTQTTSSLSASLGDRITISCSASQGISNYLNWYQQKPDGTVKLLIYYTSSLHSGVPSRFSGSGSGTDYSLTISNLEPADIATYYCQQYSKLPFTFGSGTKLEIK ? 1.76e+06

Record: 14F3H2 (antibody, V domains shown, murine antibody from hybridoma supernatant) VH: EVQLQQSGPELVKPGASMKISCKASGYSFTGYTMNWVKQSHGKNLEWIGLINPYNGGIRYNQKFKGKATLTVDKSSSTAYMELLSLTSEDSAVYYCARWGLRRAMDYWGQGTSVTVSS VL: DIVMTQSQKFMSTSVGDRVSVTCKASQNVGTNVAWYQQKPGQSPKALIYSASYRYSGVPDRFTGSGSGTDFTLTISNVQSEDLAEYFCQQYNSSPWTFGGGTKLEIK 873000
